B1: library; a variant is named by its letters at N, in order (parent)
chain: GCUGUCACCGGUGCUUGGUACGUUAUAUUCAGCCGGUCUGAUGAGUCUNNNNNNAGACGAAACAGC

# Variants of: B1
# ASSAY SUMMARY: normalized RNA/DNA level without ligand (relative to sTRSVctl = 100) (log10 (% of sTRSVctl)); HEK293T overexpressing SLC46A1; higher = less ribozyme self-cleavage, higher mRNA level
# TEST CONDITIONS: without (6R,S)-folinic acid; ligand present: no
Listed below: normalized RNA/DNA level without ligand (log10) values for each entry.
ENDPOINT NAME: normalized RNA/DNA level without ligand (log10)

{"VARIANT DESCRIPTOR": "UGGACC", "RECORDED VALUE": 2.01}
{"VARIANT DESCRIPTOR": "CUCGAC", "RECORDED VALUE": 2.02}
{"VARIANT DESCRIPTOR": "GUAGCC", "RECORDED VALUE": 2.02}
{"VARIANT DESCRIPTOR": "CAAAGG", "RECORDED VALUE": 1.91}
{"VARIANT DESCRIPTOR": "GAGCAC", "RECORDED VALUE": 2}
{"VARIANT DESCRIPTOR": "CCUCCC", "RECORDED VALUE": 2.09}
{"VARIANT DESCRIPTOR": "ACGCCG", "RECORDED VALUE": 2.02}
{"VARIANT DESCRIPTOR": "GAGACG", "RECORDED VALUE": 1.98}
{"VARIANT DESCRIPTOR": "CUAGCA", "RECORDED VALUE": 2.04}
{"VARIANT DESCRIPTOR": "GAUGGG", "RECORDED VALUE": 1.94}
